src = patent US20230250160A1

- TARGET: T1, Prostate Specific Antigen (human (produced in the Human Secretome …, UniProt P07288 18-261, limits assumed))
- T1 construct: also called PSA; bPSA
- T1 sequence (P07288 18-261 limits assumed): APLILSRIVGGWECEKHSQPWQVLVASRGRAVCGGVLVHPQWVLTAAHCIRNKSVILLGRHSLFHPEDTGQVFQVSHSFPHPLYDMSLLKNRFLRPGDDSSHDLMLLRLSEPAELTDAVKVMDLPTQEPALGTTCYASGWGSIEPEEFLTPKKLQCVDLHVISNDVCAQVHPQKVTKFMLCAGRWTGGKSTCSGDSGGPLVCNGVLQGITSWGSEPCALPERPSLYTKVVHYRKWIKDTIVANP
- PROTOCOL_SUMMARY: SPR Biacore T200, target on CM5 chip, ADAPT injected, 1:1 fit
ASSAY_READOUT: Kd (nM)
Numbers only here, please. The scale is nM.

Lookup: Record request: Kd value, item LTVAKFWALTELQEYGVSDFYANLITKAKTVEGVEALKLHILAALP (designed binder) [ADAPT variant PSA_01]
Found: 280

Lookup: For LFRAKVWAVWELDQYGVSDFYDELIWKAKTVEGVEALKLHILAALP (designed binder) [ADAPT variant PSA_05] then?
Found: 300
